Biological target: JAK2 (Homo sapiens, UniProt O60674, V617F)
Construct: their effect on JAK2 protein degradation in SET2 cells; host or cells: SET2 cells (human essential thrombocythemia)
Sequence (O60674 whole entry V617F): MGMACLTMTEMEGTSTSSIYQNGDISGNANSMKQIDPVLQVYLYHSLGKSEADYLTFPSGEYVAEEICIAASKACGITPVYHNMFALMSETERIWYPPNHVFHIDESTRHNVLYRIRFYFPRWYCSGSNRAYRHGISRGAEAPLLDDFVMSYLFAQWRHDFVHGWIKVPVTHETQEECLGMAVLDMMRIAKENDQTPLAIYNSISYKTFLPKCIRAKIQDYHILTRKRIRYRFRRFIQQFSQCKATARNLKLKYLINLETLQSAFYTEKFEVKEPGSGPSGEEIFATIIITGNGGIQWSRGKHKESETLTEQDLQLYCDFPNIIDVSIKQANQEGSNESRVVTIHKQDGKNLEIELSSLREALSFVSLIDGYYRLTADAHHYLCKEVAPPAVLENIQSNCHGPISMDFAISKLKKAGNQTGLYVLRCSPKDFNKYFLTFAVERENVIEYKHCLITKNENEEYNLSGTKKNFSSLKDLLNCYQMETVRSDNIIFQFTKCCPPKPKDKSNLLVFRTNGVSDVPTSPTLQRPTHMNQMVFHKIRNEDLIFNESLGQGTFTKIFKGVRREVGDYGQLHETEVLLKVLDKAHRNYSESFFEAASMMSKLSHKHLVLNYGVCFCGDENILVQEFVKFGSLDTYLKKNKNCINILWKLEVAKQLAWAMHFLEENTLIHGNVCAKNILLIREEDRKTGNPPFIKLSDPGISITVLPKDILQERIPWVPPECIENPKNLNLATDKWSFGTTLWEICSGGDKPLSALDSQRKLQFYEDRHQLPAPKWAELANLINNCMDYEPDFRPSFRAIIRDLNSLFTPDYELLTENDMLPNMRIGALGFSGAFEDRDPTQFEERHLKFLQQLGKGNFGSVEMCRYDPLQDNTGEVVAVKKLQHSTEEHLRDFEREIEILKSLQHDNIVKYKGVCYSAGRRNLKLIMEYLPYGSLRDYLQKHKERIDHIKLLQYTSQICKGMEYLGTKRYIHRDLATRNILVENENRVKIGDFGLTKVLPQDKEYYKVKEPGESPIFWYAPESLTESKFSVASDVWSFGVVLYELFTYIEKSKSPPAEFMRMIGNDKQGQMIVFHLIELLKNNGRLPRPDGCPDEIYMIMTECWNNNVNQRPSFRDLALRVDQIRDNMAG
Assay: Western blot quantitation of JAK2 degradation in SET2 cells
Assay type: cell-based
Conditions: 10 μM compound, 8 hours treatment, western blot densitometry vs. DMSO vehicle
TEST_READOUT: JAK2 % Degradation in SET2

>>> result("COC(=O)N[C@@H]1CC[C@@H](n2c(=O)n(C)c3cnc4[nH]c(-c5ccc(C(=O)N6CCC(CN7CCN(c8cccc9c8C(=O)N(C8CCC(=O)NC8=O)C9=O)CC7)CC6)cc5)c(-c5ccc6c(cnn6C(C)C)c5)c4c32)C1 (some centres unmarked) [Example 33]")
"A (A: ≥600% degradation)"
>>> result("CN[C@@H](C)C(=O)N[C@H](C(=O)N1C[C@@H](NC(=O)CC2CCN(C(=O)c3ccc(-c4[nH]c5ncc6c(c5c4-c4ccc5c(cnn5C(C)C)c4)n([C@@H]4CC[C@@H](NC(=O)OC)C4)c(=O)n6C)cc3F)CC2)C[C@H]1C(=O)N[C@@H]1CCCc2ccccc21)C1CCCCC1 [Example 46]")
"D (D: <20% to ≥10%)"
>>> result("COC(=O)N[C@@H]1CC[C@@H](n2c(=O)n(C)c3cnc4[nH]c(-c5ccc(C(=O)N(C)CCOCC(=O)Nc6ccc7c(c6)CN(C6CCC(=O)NC6=O)C7=O)c(F)c5)c(-c5ccc6c(cnn6C(C)C)c5)c4c32)C1 (some centres unmarked) [Example 27]")
"D (D: <20% to ≥10%)"
>>> result("COC(=O)N[C@@H]1CC[C@@H](n2c(=O)n(C)c3cnc4[nH]c(-c5ccc(C(=O)N6CCC(CN7CCN(c8ccc9c(c8)CN(C8CCC(=O)NC8=O)C9=O)CC7)CC6)c(F)c5)c(-c5ccc6c(cnn6C(C)C)c5)c4c32)C1 (some centres unmarked) [Example 36]")
"A (A: ≥600% degradation)"

----------
Target: JAK2 (Homo sapiens, UniProt O60674, V617F)
Construct: their effect on JAK2 protein degradation in SET2 cells; host or cells: SET2 cells (human essential thrombocythemia)
Assay: Western blot quantitation of JAK2 degradation in SET2 cells
Assay type: cell-based
Details: 5 μM compound, 8 hours treatment, western blot densitometry vs. DMSO vehicle
Experimental: Example E. Western Blot Analysis of JAK2 Dependent SET2 Cells Treated with Compounds of the Present Disclosure SET2 cells (DSMZ, catalog number ACC 608) are isolated from a person with human essential thrombocythemia and carry the JAK2 V617F mutation. SET2 cells were cultured in RPMI culture medium (Gibco, catalog number 11875085) supplemented with 1% penicillin-streptomycin-glutamine (Thermo Fisher Scientific, catalog number 10378016) and 20% fetal bovine serum (Gibco, catalog number 10438034). […]
TEST_READOUT: JAK2 % Degradation in SET2

>>> result("COC(=O)N[C@@H]1CC[C@@H](n2c(=O)n(C)c3cnc4[nH]c(-c5ccc(CN6CCC(CN7CCN(c8ccc9c(c8)CN(C8CCC(=O)NC8=O)C9=O)CC7)CC6)cc5)c(-c5ccc6c(cnn6C(C)C)c5)c4c32)C1 (stereo partly shown)")
"A (A: ≥600% degradation)"
>>> result("COC(=O)N[C@@H]1CC[C@@H](n2c(=O)n(C)c3cnc4[nH]c(-c5ccc(C(=O)N6CCN(CC7CCN(c8cccc9c8C(=O)N(C8CCC(=O)NC8=O)C9=O)CC7)CC6)cc5)c(-c5ccc6c(cnn6C(C)C)c5)c4c32)C1 (stereo partly shown)")
"A (A: ≥600% degradation)"
>>> result("COC(=O)N[C@@H]1CC[C@@H](n2c(=O)n(C)c3cnc4[nH]c(-c5ccc(CN6CCN(CC7CCN(c8cccc9c8C(=O)N(C8CCC(=O)NC8=O)C9=O)CC7)CC6)cc5)c(-c5ccc6c(cnn6C(C)C)c5)c4c32)C1 (stereo partly shown)")
"A (A: ≥600% degradation)"
